- assayOverview: Pharmacokinetic study in mice
- Format: in vivo
- conditionDetails: mouse; female Balb/c mice, PO 1 mg/kg, plasma compound I
parameterMeasured: Cmax

[[record]]
mol = "Cc1cc(Nc2cc(C)[nH]n2)nc(-c2ccc(N3CC4CC(C3)N4Cc3ccc(-n4cc(F)cn4)nc3)nc2)n1"
recordedvalue = "2060 ng/mL"


====

- testedOn: wild-type RET (Homo sapiens, UniProt P07949)
- Sequence (P07949 29-1114): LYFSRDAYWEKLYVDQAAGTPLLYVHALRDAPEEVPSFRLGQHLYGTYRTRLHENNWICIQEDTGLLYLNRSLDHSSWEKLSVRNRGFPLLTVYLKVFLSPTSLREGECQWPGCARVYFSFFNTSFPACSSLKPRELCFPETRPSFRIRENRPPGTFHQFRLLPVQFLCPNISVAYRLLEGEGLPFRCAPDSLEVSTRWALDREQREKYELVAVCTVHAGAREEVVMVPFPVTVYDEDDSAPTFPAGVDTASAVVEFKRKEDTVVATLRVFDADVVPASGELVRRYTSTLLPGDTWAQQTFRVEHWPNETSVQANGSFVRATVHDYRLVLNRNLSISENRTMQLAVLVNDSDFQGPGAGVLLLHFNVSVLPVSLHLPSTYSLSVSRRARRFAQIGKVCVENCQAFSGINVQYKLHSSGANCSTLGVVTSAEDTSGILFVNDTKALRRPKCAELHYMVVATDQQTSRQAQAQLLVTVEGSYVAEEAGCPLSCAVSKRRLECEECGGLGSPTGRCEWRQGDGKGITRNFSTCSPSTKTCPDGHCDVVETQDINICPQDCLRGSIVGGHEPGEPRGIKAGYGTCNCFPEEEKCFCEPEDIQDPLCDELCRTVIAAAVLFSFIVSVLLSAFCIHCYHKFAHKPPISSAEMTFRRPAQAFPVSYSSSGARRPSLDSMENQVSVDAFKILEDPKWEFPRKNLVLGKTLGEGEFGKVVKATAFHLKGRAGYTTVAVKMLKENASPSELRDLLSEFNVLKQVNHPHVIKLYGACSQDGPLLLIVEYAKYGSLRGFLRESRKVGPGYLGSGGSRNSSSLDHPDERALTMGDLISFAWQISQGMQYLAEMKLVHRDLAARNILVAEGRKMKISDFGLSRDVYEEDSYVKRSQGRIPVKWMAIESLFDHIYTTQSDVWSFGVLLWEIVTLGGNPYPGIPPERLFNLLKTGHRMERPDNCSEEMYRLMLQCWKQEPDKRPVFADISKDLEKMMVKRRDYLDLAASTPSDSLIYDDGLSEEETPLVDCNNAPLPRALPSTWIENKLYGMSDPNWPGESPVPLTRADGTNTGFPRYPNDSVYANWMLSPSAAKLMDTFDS
parameterMeasured: IC50 (nM)

[[record]]
mol = "Cc1cc(Nc2cc(C)[nH]n2)nc(-c2ccc(N3CC4CC(C3)N4Cc3ccc(-n4cc(F)cn4)nc3)nc2)n1"
parametermeasured = "IC50"
unitstext = "nM"
recordedvalue = 0.56


====

- assayOverview: Solubility determination at different pH
- Type: physicochemical
- conditionDetails: aqueous buffer; Buffer pH 1.0
parameterMeasured: solubility

[[record]]
mol = "Cc1cc(Nc2cc(C)[nH]n2)nc(-c2ccc(N3CC4CC(C3)N4Cc3ccc(-n4cc(F)cn4)nc3)nc2)n1"
recordedvalue = "≥ 12.2 mg/mL"

